System: EKVX NSCLC
Assay: NCI tumour cell line growth inhibition, 48 h
recorded_endpoint: TGI

Solved cases below.
compound="CCN(CC)c1ccc(NC(C(=O)c2ccccc2)c2ccccc2)cc1 (stereo unspecified)" assayed_target="EKVX NSCLC" result="14.4 µM"
compound="COc1ccc2c(c1)Oc1nc(N)c(C#N)c(N)c1C2Sc1ccc(SC)cc1 (stereo unspecified)" assayed_target="EKVX NSCLC" result="3.09 µM"
compound=COC(=O)[C@]1(C)CCCn2c(=O)n(-c3ccccc3)c(=O)n21 assayed_target="EKVX NSCLC" result="> 100 µM"
compound=CN(C)CCNC(=O)c1ccc2ccc3cccnc3c2n1 assayed_target="EKVX NSCLC" result="48.3 µM"
compound="COc1cc2c(cc1OC)C13CCN4CC5=CCOC(CC(=O)O)C(C5CC41)C3N2 (stereo unspecified)" assayed_target="EKVX NSCLC" result="> 100 µM"
compound="COC(=O)C(=O)C(C(=O)C(=O)Nc1ccccc1C(=O)OC)c1nc2ccc(C(=O)c3ccccc3)cc2[nH]c1=O (stereo unspecified)" assayed_target="EKVX NSCLC" result="> 100 µM"

Ask: If you can, please state the reported TGI value of "N#CI1OC(=O)c2ccccc21" .
Result: > 100 µM

Ask: Lookup "O=C(c1ccccc1)c1ccc(-c2ccc(O)cc2)cc1"
Result: 41.5 µM
